# pEC50 per record follows
# System: EV-D68 US/KY/14-18953 virus
# methodSummary: CPE assay, EV-D68 US/KY/14-18953 in RD cells
# Format: cell-based, Enterovirus D68 (EV-D68)
# runConditions: Enterovirus D, EVD68, RD, EV-D68 US/KY/14-18953, RD cells, CPE assay; read-out: EC50
Please keep in mind that pEC50 is minus log10 of the molar concentration; only the number is needed.

QUERY: // pEC50 lookup, key: "NCCCNC(=O)c1cc(-c2ccccc2)nc2ccccc12"
RESULT: 5.14

QUERY: Could you share which pEC50 value was measured for "[2H]c1c([2H])c([2H])c(-c2cc(C(=O)NCC3CNC3)c3ccccc3n2)c([2H])c1[2H]" ?
RESULT: 5.19

QUERY: Recorded pEC50 for "CC1(CNC(=O)c2cc(-c3ccccc3)nc3ccccc23)CNC1" , please?
RESULT: 5.16

* * *

// reported CC50 per item
# Tested on: A549
# methodSummary: Cytotoxicity in A549 cells
Your answer should be a plain number; it is taken to be in µM.

Study these solved cases before continuing.
CN(C)CCNC(=O)c1cc(-c2cccs2)nc2ccccc12 [drawing 129] : 98.8
O=C(NCCN1CCCC1)c1cc(-c2cccs2)nc2ccccc12 [drawing 130] : 83.2
CN(C)CCNC(=O)c1cc(-c2ccccc2)nc2ccccc12 [drawing 128] : 121

As a next step, examine the molecule that follows.
QUERY: Can you look up the measured CC50 of CCCCOc1cc(C(=O)NCCN(CC)CC)c2ccccc2n1 [drawing 127] for me?
RESULT: 37.5

* * *

# methodSummary: Cytotoxicity in Vero C1008 cells
# runConditions: African green monkey
propertyName: CC50 at 3 days (µM)
API: value field is a number in µM; no unit string.

QUERY: // lookup CC50 at 3 days for CNCCC(Oc1ccc(C(F)(F)F)cc1)c1ccccc1 (centres unmarked)
RESULT: 11

* * *

# Tested on: EV-D68 US/KY/14-18953 virus
# methodSummary: CPE assay, EV-D68 US/KY/14-18953 in RD cells
# Assay type: cell-based, Enterovirus D68 (EV-D68)
# runConditions: Enterovirus D, EVD68, RD, against five different strains of EV-D68 viruses (summary); read-out: EC50
pEC50: −log10 of the molar value.
Listed here: items and their measured pEC50.

CN(C)CCNC(=O)c1cc(-c2ccccc2)nc2ccccc12 [Compound 10a] : > 6.00

Pending compound:
QUERY: Checklist item: pEC50 tested on EV-D68 US/KY/14-18953 virus, entry O=C(NCCN1CCCC1)c1cc(-c2cccs2)nc2ccccc12 [Compound 12c] , value?
RESULT: > 6.00

* * *

# methodSummary: Cytotoxicity, neutral red method, RD cells
# runConditions: human, RD (rhabdomyosarcoma) cells
propertyName: CC50 at 3 days
Kindly format the answer as number then unit.

Consider the following illustrative entries.
CN1CC(NC(=O)c2cc(-c3ccccc3)nc3ccccc23)C1 : 46.8 µM
O=C(NCC1CNC1)c1cc(-c2cccs2)nc2ccccc12 : 28.3 µM
CN(C)CCNC(=O)c1cc(-c2c(F)c(F)c(F)c(F)c2F)nc2ccccc12 : 148 µM
O=C(NC1CNC1)c1cc(-c2ccccc2)nc2ccccc12 : 36.6 µM
O=C(NCCC1CCCN1)c1cc(-c2ccccc2)nc2ccccc12 (stereo not shown) : 19.1 µM

QUERY: What measured CC50 at 3 days goes with "CN(C)CCOC(=O)c1cc(-c2ccccc2)nc2ccccc12" ?
RESULT: 78.9 µM

QUERY: Any idea what CC50 at 3 days was measured for "O=C(NCC1CNC1)c1cc(-c2ccco2)nc2ccccc12" ?
RESULT: 170 µM

QUERY: // query CC50 at 3 days value for entry "CN(C)CCNC(=O)c1cc(-c2cc(F)c(F)c(F)c2)nc2ccccc12"
RESULT: 38 µM

QUERY: Any idea what CC50 at 3 days was measured for "NCCNC(=O)c1cc(-c2ccco2)nc2ccccc12" ?
RESULT: 147 µM

QUERY: Could you tell me which CC50 at 3 days is on file for "CNCCCNC(=O)c1cc(-c2ccccc2)nc2ccccc12" ?
RESULT: 93.6 µM
